Test system: 171881-019-R-J1-PDC tumor spheroids, viability
Test: Anticancer human tumor 171881-019-R-J1-PDC patient-derived invasive breast carcinoma cell line growth inhibition [GQUAD]
Conditions: second compound 0.1 µM; first compound 3.16 µM; stronger effect = lower value; spheroids with HUVEC and MSC
measurement_name: viability, T/C (%)
A number alone suffices; assume %.

For orientation, consider the following solved cases.
{"columns": ["compound", "viability, T/C / %"],
 "data": [
  ["CC(C)(O)C1CCC(Nc2ccc3ncc(-c4cccc(C(F)(F)F)c4)n3n2)CC1 (stereo not given) + Cc1cnc(CNC(=O)c2c(=O)c3ccc(N4CCCN(C)CC4)nc3n3c2sc2ccccc23)cn1", 19],
  ["CC(=O)O[C@H]1C(=O)[C@@]2(C)[C@H]([C@H](OC(=O)c3ccccc3)[C@]3(O)C[C@H](OC(=O)[C@H](O)[C@@H](NC(=O)c4ccccc4)c4ccccc4)C(C)=C1C3(C)C)[C@]1(OC(C)=O)CO[C@@H]1C[C@@H]2O + Cc1cnc(CNC(=O)c2c(=O)c3ccc(N4CCCN(C)CC4)nc3n3c2sc2ccccc23)cn1", 31.9],
  ["Cc1cccc(N(C)C(=O)C2C(O)CCN2c2nc(C)cc(C(F)(F)F)c2C#N)c1 (stereo not given) + CN(C)c1ccc(Nc2c3ccc(NC(=O)CCN4CCCC4)cc3nc3cc(NC(=O)CCN4CCCC4)ccc23)cc1", 85.6]
]}

If you can, please state the reported viability, T/C value of Nc1ccn(C2OC(CO)C(O)C2(F)F)c(=O)n1 (stereo not given) + CN(C)c1ccc(Nc2c3ccc(NC(=O)CCN4CCCC4)cc3nc3cc(NC(=O)CCN4CCCC4)ccc23)cc1 .
45.6

Try this compound too: O=C(NO)c1cnc(N2CCN(S(=O)(=O)c3ccc4ccccc4c3)CC2)nc1 + CN(C)c1ccc(Nc2c3ccc(NC(=O)CCN4CCCC4)cc3nc3cc(NC(=O)CCN4CCCC4)ccc23)cc1
0.22

---

Tested on: 171881-019-R-J1-PDC tumor spheroids, viability
Experiment: Anticancer human tumor 171881-019-R-J1-PDC cell line growth inhibition [GQUAD];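 also: spheroids exposed to compounds for 7 days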;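 as to viability, T/C: 100% = DMSO vehicle control viability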
Conditions: second compound 0.316 µM; first compound 0.316 µM; stronger effect = lower value; spheroids with HUVEC and MSC
measurement_name: viability, T/C (%)
Unit % implied. Number only.

Which value of viability, T/C has been reported for CC(C)n1c(=O)n(C)c2cnc3cc(F)c(-c4ccc(OCCCN5CCCCC5)nc4)cc3c21 + Cc1[nH]c2ccc(F)cc2c1-c1nc2c3cccnc3c3ncccc3c2[nH]1 in the records?
64.5

Entry CC1COCCN1c1cc(C2(S(C)(=N)=O)CC2)nc(-c2ccnc3[nH]ccc23)n1 (configuration not stated) + CN(C)c1ccc(Nc2c3ccc(NC(=O)CCN4CCCC4)cc3nc3cc(NC(=O)CCN4CCCC4)ccc23)cc1 please
63

Now try CC1COCCN1c1cc(-c2ccnn2C)c2ccnc(-c3ccn[nH]3)c2n1 (configuration not stated) + Cc1[nH]c2ccc(F)cc2c1-c1nc2c3cccnc3c3ncccc3c2[nH]1 .
16.2

// next record C=CCn1c(=O)c2cnc(Nc3ccc(N4CCN(C)CC4)cc3)nc2n1-c1cccc(C(C)(C)O)n1 + CN(C)c1ccc(Nc2c3ccc(NC(=O)CCN4CCCC4)cc3nc3cc(NC(=O)CCN4CCCC4)ccc23)cc1
36.4

Now give it for CCCS(=O)(=O)Nc1ccc(F)c(C(=O)c2c[nH]c3ncc(-c4ccc(Cl)cc4)cc23)c1F + Cc1cnc(CNC(=O)c2c(=O)c3ccc(N4CCCN(C)CC4)nc3n3c2sc2ccccc23)cn1 too.
81.9

Could you do the same for C=CCn1c(=O)c2cnc(Nc3ccc(N4CCN(C)CC4)cc3)nc2n1-c1cccc(C(C)(C)O)n1 + Cc1[nH]c2ccc(F)cc2c1-c1nc2c3cccnc3c3ncccc3c2[nH]1 , please?
56

Quick one: COc1cccc2c1C(=O)c1c(O)c3c(c(O)c1C2=O)CC(O)(C(=O)CO)CC3OC1CC(N)C(O)C(C)O1 (configuration not stated) + CN(C)c1ccc(Nc2c3ccc(NC(=O)CCN4CCCC4)cc3nc3cc(NC(=O)CCN4CCCC4)ccc23)cc1
47.6

---

Test system: 171881-019-R-J1-PDC tumor spheroids, viability
Assay: Anticancer human tumor 171881-019-R-J1-PDC cell line growth inhibition [GQUAD];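 also: spheroids exposed to compounds for 7 days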;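 as to viability, T/C: 100% = DMSO vehicle control viability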
Details: second compound 1 µM; first compound 3.16 µM; stronger effect = lower value; spheroids with HUVEC and MSC
measurement_name: viability, T/C

{"columns": ["compound", "viability, T/C"],
 "data": [
  ["C#Cc1c(F)ccc2cc(O)cc(-c3ncc4c(N5CC6CCC(C5)N6)nc(OCC56CCCN5CC(F)C6)nc4c3F)c12 (stereo not drawn) + Cc1cnc(CNC(=O)c2c(=O)c3ccc(N4CCCN(C)CC4)nc3n3c2sc2ccccc23)cn1", "41%"],
  ["Cc1cccc(N(C)C(=O)C2C(O)CCN2c2nc(C)cc(C(F)(F)F)c2C#N)c1 (stereo not drawn) + Cc1[nH]c2ccc(F)cc2c1-c1nc2c3cccnc3c3ncccc3c2[nH]1", "90.5%"]
]}

Return reported viability, T/C; argument: COc1cccc2c1C(=O)c1c(O)c3c(c(O)c1C2=O)CC(O)(C(=O)CO)CC3OC1CC(N)C(O)C(C)O1 (stereo not drawn) + Cc1cnc(CNC(=O)c2c(=O)c3ccc(N4CCCN(C)CC4)nc3n3c2sc2ccccc23)cn1
0.12%

---

Tested on: 171881-019-R-J1-PDC tumor spheroids, viability
Assay: Anticancer human tumor 171881-019-R-J1-PDC cell line growth inhibition [GQUAD]; active = viability on the fitted dose curve at most 10% of control; inactive = the rest;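 also: spheroids exposed to compounds for 7 days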
Conditions: second compound 0.0316 µM; first compound 3.16 µM; spheroids with HUVEC and MSC
Permitted responses: label 1 for active, label 0 for inactive

Below, 4 compounds whose answers are already recorded.
{"columns": ["compound", "answer_label"],
 "data": [
  ["C#Cc1c(F)ccc2cc(O)cc(-c3ncc4c(N5CC6CCC(C5)N6)nc(OCC56CCCN5CC(F)C6)nc4c3F)c12 (stereo not given) + Cc1cnc(CNC(=O)c2c(=O)c3ccc(N4CCCN(C)CC4)nc3n3c2sc2ccccc23)cn1", "label 0"],
  ["CC1COCCN1c1cc(-c2ccnn2C)c2ccnc(-c3ccn[nH]3)c2n1 (stereo not given) + Cc1[nH]c2ccc(F)cc2c1-c1nc2c3cccnc3c3ncccc3c2[nH]1", "label 1"],
  ["COc1cc(C2c3cc4c(cc3C(OC3OC5COC(C)OC5C(O)C3O)C3COC(=O)C23)OCO4)cc(OC)c1O (stereo not given) + Cc1cnc(CNC(=O)c2c(=O)c3ccc(N4CCCN(C)CC4)nc3n3c2sc2ccccc23)cn1", "label 0"],
  ["COc1ncnc(C2CC2)c1-c1ncc2cnn(Cc3ccc(-c4nc(C(F)(F)F)cn4C(C)C)cc3)c2n1 + Cc1cnc(CNC(=O)c2c(=O)c3ccc(N4CCCN(C)CC4)nc3n3c2sc2ccccc23)cn1", "label 0"]
]}

Here's the next entry for you.
Hello, I am checking results. What call was entered for COc1cc(C2c3cc4c(cc3C(OC3OC5COC(C)OC5C(O)C3O)C3COC(=O)C23)OCO4)cc(OC)c1O (stereo not given) + CN(C)c1ccc(Nc2c3ccc(NC(=O)CCN4CCCC4)cc3nc3cc(NC(=O)CCN4CCCC4)ccc23)cc1 ?
label 0

---

System: 171881-019-R-J1-PDC tumor spheroids, viability
Experiment: Anticancer human tumor 171881-019-R-J1-PDC cell line growth inhibition [GQUAD];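 also: spheroids exposed to compounds for 7 days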
Settings: curve of first compound; second compound 3.16 µM; spheroids with HUVEC and MSC
IC50 overview

{"columns": ["compound", "IC50"],
 "data": [
  ["O=C(NO)c1cnc(N2CCN(S(=O)(=O)c3ccc4ccccc4c3)CC2)nc1 + Cc1[nH]c2ccc(F)cc2c1-c1nc2c3cccnc3c3ncccc3c2[nH]1", "< 0.0316 µM"]
]}

Query: IC50; subject: CC(=O)O[C@H]1C(=O)[C@@]2(C)[C@H]([C@H](OC(=O)c3ccccc3)[C@]3(O)C[C@H](OC(=O)[C@H](O)[C@@H](NC(=O)c4ccccc4)c4ccccc4)C(C)=C1C3(C)C)[C@]1(OC(C)=O)CO[C@@H]1C[C@@H]2O + CN(C)c1ccc(Nc2c3ccc(NC(=O)CCN4CCCC4)cc3nc3cc(NC(=O)CCN4CCCC4)ccc23)cc1
< 0.0316 µM

---

System: 171881-019-R-J1-PDC tumor spheroids, viability
Experiment: Anticancer human tumor 171881-019-R-J1-PDC cell line growth inhibition [GQUAD]; active = viability on the fitted dose curve at most 10% of control; inactive = the rest;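 also: spheroids exposed to compounds for 7 days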
Conditions: second compound 0.316 µM; first compound 0.0999 µM; spheroids with HUVEC and MSC
Tick one outcome: y for active, n for inactive

Some entries whose results are on file:
{"columns": ["compound", "answer_label"],
 "data": [
  ["CC[C@@]1(O)C(=O)OCc2c1cc1n(c2=O)Cc2cc3c(CN(C)C)c(O)ccc3nc2-1 + Cc1cnc(CNC(=O)c2c(=O)c3ccc(N4CCCN(C)CC4)nc3n3c2sc2ccccc23)cn1", "n"],
  ["CCc1c2c(nc3ccc(O)cc13)-c1cc3c(c(=O)n1C2)COC(=O)[C@]3(O)CC + CN(C)c1ccc(Nc2c3ccc(NC(=O)CCN4CCCC4)cc3nc3cc(NC(=O)CCN4CCCC4)ccc23)cc1", "n"],
  ["Cc1[nH]c2ccccc2c1CCNCc1ccc(/C=C/C(=O)NO)cc1 + Cc1cnc(CNC(=O)c2c(=O)c3ccc(N4CCCN(C)CC4)nc3n3c2sc2ccccc23)cn1", "n"],
  ["CCc1c2c(nc3ccc(O)cc13)-c1cc3c(c(=O)n1C2)COC(=O)[C@]3(O)CC + Cc1[nH]c2ccc(F)cc2c1-c1nc2c3cccnc3c3ncccc3c2[nH]1", "n"],
  ["Cn1ncnc1[C@H]1c2n[nH]c(=O)c3cc(F)cc(c23)N[C@@H]1c1ccc(F)cc1 + Cc1cnc(CNC(=O)c2c(=O)c3ccc(N4CCCN(C)CC4)nc3n3c2sc2ccccc23)cn1", "n"]
]}

Hi team, can someone confirm the assay call for Cn1ncnc1[C@H]1c2n[nH]c(=O)c3cc(F)cc(c23)N[C@@H]1c1ccc(F)cc1 + CN(C)c1ccc(Nc2c3ccc(NC(=O)CCN4CCCC4)cc3nc3cc(NC(=O)CCN4CCCC4)ccc23)cc1 ?
n

Let us now turn to Cc1[nH]c2ccccc2c1CCNCc1ccc(/C=C/C(=O)NO)cc1 + Cc1[nH]c2ccc(F)cc2c1-c1nc2c3cccnc3c3ncccc3c2[nH]1
n

And what about the compound Cn1ncnc1[C@H]1c2n[nH]c(=O)c3cc(F)cc(c23)N[C@@H]1c1ccc(F)cc1 + Cc1[nH]c2ccc(F)cc2c1-c1nc2c3cccnc3c3ncccc3c2[nH]1 ?
n

Record: Cc1[nH]c2ccccc2c1CCNCc1ccc(/C=C/C(=O)NO)cc1 + CN(C)c1ccc(Nc2c3ccc(NC(=O)CCN4CCCC4)cc3nc3cc(NC(=O)CCN4CCCC4)ccc23)cc1
y

Now the compound CC[C@@]1(O)C(=O)OCc2c1cc1n(c2=O)Cc2cc3c(CN(C)C)c(O)ccc3nc2-1 + Cc1[nH]c2ccc(F)cc2c1-c1nc2c3cccnc3c3ncccc3c2[nH]1
n

How about CCc1c2c(nc3ccc(O)cc13)-c1cc3c(c(=O)n1C2)COC(=O)[C@]3(O)CC + Cc1cnc(CNC(=O)c2c(=O)c3ccc(N4CCCN(C)CC4)nc3n3c2sc2ccccc23)cn1 ?
n

CC[C@@]1(O)C(=O)OCc2c1cc1n(c2=O)Cc2cc3c(CN(C)C)c(O)ccc3nc2-1 + CN(C)c1ccc(Nc2c3ccc(NC(=O)CCN4CCCC4)cc3nc3cc(NC(=O)CCN4CCCC4)ccc23)cc1 , same question.
n
